These data points were gathered from the nanobody polyreactivity screen of Harvey et al. (2022).

# Test name: yeast display, Sf9 membrane polyspecificity reagent, FACS + sequencing; frameworks hold sequencing errors
Readout kind: polyreactivity (PSR sort gate)

Biopolymer sequence	Result
QVQHVESGGGLVQAGGSLRLSCAASGRIFGYYAMGWYRQAPGKERELVAAISRGGSTNYADSVNGRFTISLDNAKNSVYFQMNSLNPEDTAVYYCAADVASARYYHGYNYWGQGTQVTLSS	high polyreactivity
QVQLVESGGGLVQAGGRLRLSCAASGFTLTRNAMGWYRQAPGKERELVAAISWSGGTTYYADSVKGRFTISRDNAKNTVYLQMNSLKPEDTAVYYCNTASLRAHYYYWGQGTQVTVSS	high polyreactivity
